- test-target: human α-thrombin (Homo sapiens, UniProt P00734)
- Construct: Pure human α-thrombin; gift of Dr. T. Lindhout (University of Limburg, Maastricht)
- protocol-details: Kinetics of hydrolysis of substrates by human α-thrombin in buffer A at 37° C. (Example 2, Table 1)
- Format: biochemical
Square brackets hold non-standard residues; d marks the D form. Peptide text beside a SMILES is read from it. * marks the point of attachment. pNA = O=[N+]([O-])c1ccc(N*)cc1; Pip = O=C(O)[C@@H]1CCCCN1; Nle = CCCC[C@H](N)C(=O)O; Orn = NCCC[C@H](N)C(=O)O
property: kcat

Check out these entries, answers already filled in.
compound="C[C@H](N)C(=O)N[C@@H](CCCNC(=N)N)C(=O)Nc1ccc([N+](=O)[O-])cc1.Cl.Cl [2HCl.H-Ala-Arg-pNA] (H-Ala-Arg-pNA)" property=kcat result="0.074 s⁻¹"
compound="Cl.Cl.NCCC[C@H](NC(=O)[C@@H]1CCCCN1C(=O)[C@H](N)Cc1ccccc1)C(=O)Nc1ccc([N+](=O)[O-])cc1 [2HCl.H-D-Phe-Pip-Orn-pNA] (H-[dF]-[Pip]-[Orn]-pNA)" property=kcat result="4.64 s⁻¹"
compound="Cl.N=C(N)NCCC[C@H](NC(=O)CNS(=O)(=O)c1ccc2ccccc2c1)C(=O)Nc1ccc([N+](=O)[O-])cc1 [βNS-Gly-Arg-pNA.HCl]" property=kcat result=NH
compound="COC(=O)C(C)C(=O)NC(C)C(=O)NC(CCCNC(=N)N)C(=O)Nc1ccc([N+](=O)[O-])cc1.Cl (mixture of isomers) [MMZ-Ala-Arg-pNA.HCl]" property=kcat result="16.5 s⁻¹"

Now examine the next entry.
**Q:** Note kcat for the compound shown: CCCC[C@H](NC(=O)[C@@H]1CCCN1C(=O)[C@H](N)Cc1ccccc1)C(=O)Nc1ccc([N+](=O)[O-])cc1.Cl [HCl.H-D-Phe-Pro-Nle-pNA] (H-[dF]-Pro-[Nle]-pNA)
**A:** 6.66 s⁻¹

---

- test-target: thrombin (Homo sapiens)
- protocol-details: Kinetic parameters of hydrolysis of the substrates by thrombin in buffer A at 37° C. (Example 4, Table 3)
- Type: biochemical
- Design: Pure human α-thrombin; gift of Dr. T. Lindhout (University of Limburg, Maastricht)
- measurement-parameters: buffer A, 37° C.
- Description: Kinetic parameters: The hydrolysis experiments were run in buffer A at 37° C. The liberation of p-nitroaniline was monitored at 405 nm in a dual wavelength (405-546 nm) spectrophotometer made in our workshop, using a personal computer for data recording. In a polystyrene microcuvette (total volume 500 μL), buffer A and substrate solution were added to obtain a final substrate concentration between 200 to 2000 μM. […]
Peptide text beside a SMILES is read from it. * marks the point of attachment. pNA = O=[N+]([O-])c1ccc(N*)cc1
compounds and their reported Km
Your answer is read as µM, so omit the unit and give the number.

Check out these entries, answers already filled in.
compound="CC(C)[C@H](NC(=O)CNC(=O)CNC(=O)CNC(=O)[C@@H](N)CCC(=O)O)C(=O)N[C@@H](CCCNC(=N)N)C(=O)Nc1ccc([N+](=O)[O-])cc1 [2HCl.H-EGGGVR-pNA, 2HCl.H-Glu-Gly-Gly-Gly-Val-Arg-pNA] (H-EGGGVR-pNA)" readout_unit=µM measured_number=379
compound="CC(C)[C@H](NC(=O)[C@@H](N)CCC(=O)O)C(=O)N[C@@H](CCCNC(=N)N)C(=O)Nc1ccc([N+](=O)[O-])cc1.Cl.Cl [2HCl.H-Glu-Val-Arg-pNA] (H-Glu-Val-Arg-pNA)" readout_unit=µM measured_number=932
compound="CC(C)[C@H](NC(=O)CN)C(=O)N[C@@H](CCCCN)C(=O)Nc1ccc([N+](=O)[O-])cc1.Cl.Cl [2HCl.H-Gly-Val-Lys pNA, 2HCl.H-Gly-Val-Lys-pNA] (H-Gly-Val-Lys-pNA)" readout_unit=µM measured_number=986

**Q:** Note Km for the compound shown: CC(C)[C@H](NC(=O)CNC(=O)[C@@H]1CCCN1C(=O)CNC(=O)[C@@H](N)CCC(=O)O)C(=O)N[C@@H](CCCNC(=N)N)C(=O)Nc1ccc([N+](=O)[O-])cc1 [2HCl.H-EGPGVR-pNA, 2HCl.H-Glu-Gly-Pro-Gly-Val-Arg-pNA] (H-EGPGVR-pNA)
**A:** 1070

---

- test-target: thrombin (Homo sapiens)
- protocol-details: Kinetic parameters of hydrolysis of the substrates by thrombin in buffer A at 37° C. (Example 4, Table 3)
- Format: biochemical
- Set-up: Pure human α-thrombin; gift of Dr. T. Lindhout (University of Limburg, Maastricht); key: NH: no hydrolysis
- measurement-parameters: buffer A, 37° C.
Peptide text beside a SMILES is read from it. * marks the point of attachment. pNA = O=[N+]([O-])c1ccc(N*)cc1
property: Thrombin kcat

compound=CCCC[C@H](NC(=O)[C@@H](NC(=O)OCCS(C)(=O)=O)C(C)C)C(=O)Nc1ccc([N+](=O)[O-])cc1 result=NH
compound="CC(C)[C@H](NC(=O)OCCS(C)(=O)=O)C(=O)N[C@@H](CCCN)C(=O)Nc1ccc([N+](=O)[O-])cc1.Cl [Msc-Val-Orn-pNA.HCl]" result=NH
compound="CC(C)C(N)C(=O)NC(CCCCN)C(=O)Nc1ccc([N+](=O)[O-])cc1.Cl.Cl (stereo not drawn) [2HCl.H-Val-Lys-pNA]" result=NH
compound="CC(C)[C@H](NC(=O)CNC(=O)CNC(=O)[C@@H]1CCCN1C(=O)[C@@H](N)CCC(=O)O)C(=O)N[C@@H](CCCNC(=N)N)C(=O)Nc1ccc([N+](=O)[O-])cc1 [2HCl.H-EPGGVR-pNA, 2HCl.H-Glu-Pro-Gly-Gly-Val-Arg-pNA] (H-EPGGVR-pNA)" result=NH

---

- test-target: factor Xa (Homo sapiens)
- Construct: human factor Xa samples; gift of Dr. T. Lindhout (University of Limburg, Maastricht)
- Sequence (P00742 41-179 limits assumed): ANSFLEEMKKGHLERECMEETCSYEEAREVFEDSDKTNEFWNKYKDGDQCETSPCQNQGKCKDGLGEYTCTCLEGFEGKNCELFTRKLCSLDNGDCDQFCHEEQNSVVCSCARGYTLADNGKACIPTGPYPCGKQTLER
- Sequence (P00742 235-488 limits assumed): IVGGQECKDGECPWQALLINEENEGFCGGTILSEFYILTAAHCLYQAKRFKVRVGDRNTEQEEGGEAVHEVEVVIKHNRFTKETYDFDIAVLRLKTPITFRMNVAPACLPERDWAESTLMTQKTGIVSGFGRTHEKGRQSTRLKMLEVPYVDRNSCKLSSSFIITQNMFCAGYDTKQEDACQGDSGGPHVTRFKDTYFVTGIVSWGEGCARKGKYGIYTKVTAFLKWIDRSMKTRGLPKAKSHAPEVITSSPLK
- protocol-details: Kinetics of hydrolysis of substrates by human factor Xa in buffer A at 37° C. (Example 2, Table 2)
- Type: biochemical
property: Km (mM)
Your answer is read as mM, so omit the unit and give the number.

**Q:** Under factor Xa (Homo sapiens), report Km for COC(=O)CC(=O)N[C@H](C(=O)N[C@@H](CCCNC(=N)N)C(=O)Nc1ccc([N+](=O)[O-])cc1)C(C)C.Cl [MZ-Val-Arg-pNA.HCl]
**A:** 2.57

**Q:** Under factor Xa (Homo sapiens), report Km for COC(=O)C(C)(C)C(=O)N[C@@H](C)C(=O)N[C@@H](CCCNC(=N)N)C(=O)Nc1ccc([N+](=O)[O-])cc1.Cl [DMMZ-Ala-Arg-pNA.HCl]
**A:** 2.24

**Q:** Under factor Xa (Homo sapiens), report Km for COC(=O)C(C)(C)C(=O)NCC(=O)N[C@@H](CCCNC(=N)N)C(=O)Nc1ccc([N+](=O)[O-])cc1.Cl [DMMZ-Gly-Arg-pNA.HCl]
**A:** 2.84

---

- test-target: human α-thrombin (Homo sapiens)
- Construct: Pure human α-thrombin; gift of Dr. T. Lindhout (University of Limburg, Maastricht)
- protocol-details: Kinetics of hydrolysis of substrates by human α-thrombin in buffer A at 37° C. (Example 2, Table 1)
- Assay type: biochemical
Square brackets hold non-standard residues; d marks the D form. Peptide text beside a SMILES is read from it. * marks the point of attachment. pNA = O=[N+]([O-])c1ccc(N*)cc1; Pip = O=C(O)[C@@H]1CCCCN1; Boc = CC(C)(C)OC(=O)*
property: kcat (s⁻¹)
Your answer is read as s⁻¹, so omit the unit and give the number.

Check out these entries, answers already filled in.
molecule="CC(C)[C@H](N)C(=O)N[C@@H](CCCNC(=N)N)C(=O)Nc1ccc([N+](=O)[O-])cc1.Cl.Cl [2HCl.H-Val-Arg-pNA] (H-Val-Arg-pNA)" property=kcat measured_number=0.23
molecule="CC(C)[C@H](NC(=O)CNC(=O)OC(C)(C)C)C(=O)N[C@@H](CCCNC(=N)N)C(=O)Nc1ccc([N+](=O)[O-])cc1.Cl [Boc-Gly-Val-Arg-pNA.HCl] (Boc-Gly-Val-Arg-pNA)" property=kcat measured_number=11.2
molecule="COC(=O)CC(=O)N[C@@H](C(=O)N[C@@H](CCCNC(=N)N)C(=O)Nc1ccc([N+](=O)[O-])cc1)C(C)C.Cl [MZ-D-Val-Arg-pNA.HCl]" property=kcat measured_number=0.146
molecule="Cl.N[C@H](Cc1ccccc1)C(=O)N1CCCC[C@H]1C(=O)N[C@@H](CCC(=O)O)C(=O)Nc1ccc([N+](=O)[O-])cc1 [HCl.H-D-Phe-Pip-Glu-pNA] (H-[dF]-[Pip]-Glu-pNA)" property=kcat measured_number=0.35
molecule="Cl.Cl.NCCCC[C@H](NC(=O)[C@@H]1CCCN1C(=O)[C@H](N)Cc1ccccc1)C(=O)Nc1ccc([N+](=O)[O-])cc1 [2HCl.H-D-Phe-Pro-Lys-pNA] (H-[dF]-Pro-Lys-pNA)" property=kcat measured_number=90.4

Now examine the next entry.
**Q:** Note kcat for the molecule shown: CCC(CC)(C(=O)NCC(=O)N[C@@H](CCCNC(=N)N)C(=O)Nc1ccc([N+](=O)[O-])cc1)C(=O)OC.Cl [DEMZ-Gly-Arg-pNA.HCl]
**A:** 1.73
